Parameter Dmax: see the listing below.
molecular target: UniProt:P51532; experiment: HiBiT assay for protein degradation, Hela SMARCA4-HiBiT cells (A series); type: cell-based; set-up: fuse HiBiT to the carboxy terminus of SMARCA2 (Promega CS302365) or SMARCA4 (Promega CS3023225); host or cells: HeLa (CRISPR/Cas9 HiBiT knock-in); settings: Hela SMARCA4-HiBiT cells, 24 hours treatment; read-out: SMARC A4 Hela HiBit Dmax(%)

Cc1ncsc1-c1ccc([C@H](Cn2cc([C@H]3CC[C@H](CN4CCC(c5ccc6c(c5)C5(CCCCC5)c5nc(=O)c7c(Br)cccc7n5-6)CC4)CC3)nn2)NC(=O)[C@@H]2C[C@@H](O)CN2C(=O)[C@@H](NC(=O)C2(F)CC2)C(C)(C)C)cc1 [Compound A33]	70 to 90%

// fetch Dmax given entry Cc1ncsc1-c1ccc([C@H](C)NC(=O)[C@@H]2C[C@@H](O)CN2C(=O)[C@@H](NC(=O)C23CCC(CN4CCC(c5ccc6c(c5)C5(CCCCC5)c5nc(=O)c7c(Br)cccc7n5-6)CC4)(CC2)CC3)C(C)(C)C)cc1 [Compound A27]
50 to 69%

Supply measured Dmax of Cc1ncsc1-c1ccc([C@H](CCCCCN2CCC(c3ccc4c(c3)C3(CCCCC3)c3nc(=O)c5c(Br)cccc5n3-4)CC2)NC(=O)[C@@H]2C[C@@H](O)CN2C(=O)[C@@H](NC(=O)C2(N(C)C)CC2)C(C)(C)C)cc1 [Compound A17] in your reply.
> 90%

For the compound Cc1ncsc1-c1ccc([C@H](C)NC(=O)[C@@H]2C[C@@H](O)CN2C(=O)[C@@H](n2cc(CCCCCN3CCC(c4ccc5c(c4)C4(CCCCC4)c4nc(=O)c6c(Br)cccc6n4-5)CC3)nn2)C(C)(C)C)cc1 [Compound A57] , give its measured Dmax value.
> 90%

* * *

biological target: SMARCA2 (Homo sapiens); assay: HiBit assay in engineered HT1080 CRISPR knock-in cell, 6 hrs (B series), SMARCA2; assay type: cell-based; conditions: HT-1080, HT1080 CRISPR knock-in cells, 6 hrs incubation; read-out: SMARC A2 HT1080 HiBit Dmax (%)
Below is a list of entries, each paired with its recorded Dmax value.

Field: example entries. Status: answers known.
Cc1ncsc1-c1ccc([C@H](C)NC(=O)[C@@H]2C[C@@H](O)CN2C(=O)[C@@H](NC(=O)CCCCn2cc(-c3ccc4c(c3)-n3c(nc(=O)c5c(Cl)cccc53)C4(C)C)cn2)C(C)(C)C)cc1 [Compound B64]	< 50%
Cc1ncsc1-c1ccc([C@H](C)NC(=O)[C@@H]2C[C@@H](O)CN2C(=O)[C@@H](NC(=O)CCCn2cc(-c3ccc4c(c3)C(C)(C)c3nc(=O)c5c(Cl)cccc5n3-4)cn2)C(C)(C)C)cc1 [Compound B93]	50 to 69%
C[C@H](NC(=O)[C@@H]1C[C@@H](O)CN1C(=O)[C@@H](n1cc([C@H]2CC[C@H](CN3CCN(c4ccc5c(c4)-n4c(nc(=O)c6c(Cl)cccc64)C5(C)C)CC3)CC2)nn1)C(C)(C)C)c1ccc(-c2ccnn2C)cc1 [Compound B125]	> 90%

Turning now to a further record.
Please give the documented Dmax of Cc1ncsc1-c1ccc([C@H](C)NC(=O)[C@@H]2C[C@@H](O)CN2C(=O)[C@@H](NC(=O)CN2CCC(c3ccc4c(c3)C(C)(C)c3nc(=O)c5c(Br)cccc5n3-4)CC2)C(C)(C)C)cc1 [Compound B5]
> 90%

* * *

target: SMARCA4 (Homo sapiens, UniProt P51532); assay: HiBit assay in engineered HT1080 CRISPR knock-in cell, 6 hrs (B series), SMARCA4; assay type: cell-based; conditions: HT-1080, HT1080 CRISPR knock-in cells, 6 hrs incubation; read-out: SMARC A4 HT1080 HiBit Dmax(%)
Sequence (P51532 whole entry): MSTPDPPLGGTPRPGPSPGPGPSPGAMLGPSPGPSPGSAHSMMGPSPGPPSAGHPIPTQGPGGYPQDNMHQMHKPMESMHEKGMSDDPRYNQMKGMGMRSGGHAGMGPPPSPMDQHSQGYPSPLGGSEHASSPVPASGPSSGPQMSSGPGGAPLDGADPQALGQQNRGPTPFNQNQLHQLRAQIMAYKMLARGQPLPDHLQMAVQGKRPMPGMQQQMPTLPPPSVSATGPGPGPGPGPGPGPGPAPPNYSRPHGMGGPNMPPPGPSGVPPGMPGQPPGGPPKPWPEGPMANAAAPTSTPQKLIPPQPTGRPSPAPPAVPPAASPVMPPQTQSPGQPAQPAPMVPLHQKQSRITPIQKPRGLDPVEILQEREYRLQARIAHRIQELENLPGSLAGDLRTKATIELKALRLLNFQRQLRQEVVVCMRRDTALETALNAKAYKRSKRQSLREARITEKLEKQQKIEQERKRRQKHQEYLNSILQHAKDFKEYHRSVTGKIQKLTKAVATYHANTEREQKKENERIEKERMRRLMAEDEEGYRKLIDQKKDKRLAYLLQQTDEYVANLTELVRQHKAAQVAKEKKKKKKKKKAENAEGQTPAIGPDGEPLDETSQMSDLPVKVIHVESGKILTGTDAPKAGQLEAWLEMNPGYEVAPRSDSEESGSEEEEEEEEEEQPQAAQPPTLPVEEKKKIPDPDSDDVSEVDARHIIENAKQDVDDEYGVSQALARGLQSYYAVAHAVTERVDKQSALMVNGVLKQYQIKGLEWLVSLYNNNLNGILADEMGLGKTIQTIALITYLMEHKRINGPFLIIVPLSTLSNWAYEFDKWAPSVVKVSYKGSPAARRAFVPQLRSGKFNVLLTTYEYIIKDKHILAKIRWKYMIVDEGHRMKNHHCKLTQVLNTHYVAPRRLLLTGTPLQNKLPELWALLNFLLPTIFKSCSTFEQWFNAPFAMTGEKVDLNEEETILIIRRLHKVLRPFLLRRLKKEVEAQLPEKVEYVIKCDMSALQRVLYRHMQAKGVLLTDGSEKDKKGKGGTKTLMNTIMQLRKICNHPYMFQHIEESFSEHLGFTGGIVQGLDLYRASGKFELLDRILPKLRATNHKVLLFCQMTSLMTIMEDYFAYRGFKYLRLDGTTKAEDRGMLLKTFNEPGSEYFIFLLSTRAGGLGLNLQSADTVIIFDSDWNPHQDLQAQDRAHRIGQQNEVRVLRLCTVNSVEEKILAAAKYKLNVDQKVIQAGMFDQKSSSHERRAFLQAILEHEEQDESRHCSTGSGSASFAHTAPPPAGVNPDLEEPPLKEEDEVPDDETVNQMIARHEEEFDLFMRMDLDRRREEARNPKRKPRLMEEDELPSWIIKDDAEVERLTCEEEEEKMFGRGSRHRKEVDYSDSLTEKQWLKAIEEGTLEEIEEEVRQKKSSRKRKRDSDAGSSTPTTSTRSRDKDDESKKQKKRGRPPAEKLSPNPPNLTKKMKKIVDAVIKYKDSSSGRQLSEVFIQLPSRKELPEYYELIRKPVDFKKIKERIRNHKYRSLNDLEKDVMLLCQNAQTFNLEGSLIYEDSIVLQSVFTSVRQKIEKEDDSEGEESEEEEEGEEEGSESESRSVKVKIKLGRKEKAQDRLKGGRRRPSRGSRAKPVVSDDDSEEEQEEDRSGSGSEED
The following compounds are shown together with reported Dmax values.

Cc1cc(C(C(=O)N2C[C@H](O)C[C@H]2C(=O)N[C@@H](C)c2ccc(-c3scnc3C#CCOCCCN3CCC(c4ccc5c(c4)-n4c(nc(=O)c6c(Cl)cccc64)C5(C)C)CC3)cc2)C(C)C)on1 (stereo partly drawn) [Compound B103]	> 90%
Cc1ncsc1-c1ccc([C@H](C)NC(=O)C2C[C@@H](O)CN2C(=O)[C@@H](c2cc(OCCCCN3CCC(c4cccc5c4C(C)(C)c4nc(=O)c6c(Cl)cccc6n4-5)CC3)no2)C(C)C)cc1 (stereo in doubt) [Compound B98]	< 50%
Cc1ncsc1-c1ccc([C@H](C)NC(=O)[C@@H]2C[C@@H](O)CN2C(=O)[C@@H](NC(=O)[C@H]2CC[C@H](CN3CCC(c4ccc5c(c4)-n4c(nc(=O)c6c(Cl)cccc64)C5(C)C)CC3)CC2)C(C)(C)C)cc1 [Compound B40]	< 50%
Cc1ncsc1-c1ccc([C@H](C)NC(=O)[C@@H]2C[C@@H](O)CN2C(=O)[C@@H](c2cc(OCC3(CN4CCC(c5ccc6c(c5)-n5c(nc(=O)c7c(Cl)cccc75)C6(C)C)CC4)CC3)no2)C(C)C)cc1 [Compound B91]	> 90%
Cc1ncsc1-c1ccc([C@H](C)NC(=O)[C@@H]2C[C@@H](O)CN2C(=O)[C@@H](n2cc([C@H](C)N3CCC(c4ccc5c(c4)-n4c(nc(=O)c6c(Cl)cccc64)C5(C)C)CC3)nn2)C(C)(C)C)cc1 [Compound B68]	< 50%

Find the measured Dmax of Cc1ncsc1-c1ccc([C@H](C)NC(=O)[C@@H]2C[C@@H](O)CN2C(=O)[C@H](C(C)C)n2cc(C3CCN(CCCN4CCC(c5ccc6c(c5)-n5c(nc(=O)c7c(Cl)cccc75)C6(C)C)CC4)CC3)nn2)cc1 [Compound B66] and report it.
> 90%

Tell me Dmax reported for C[C@H](NC(=O)[C@@H]1C[C@@H](O)CN1C(=O)[C@@H](n1cc(C2CCC(CN3CCN(c4ccc5c(c4)-n4c(nc(=O)c6c(Cl)cccc64)C54CCCCC4)CC3)CC2)nn1)C(C)(C)C)c1ccc(-c2scnc2C#CCN2CCOCC2)cc1 (stereo partly drawn) [Compound B140]
50 to 69%

Give the reported Dmax for this compound. Cc1ncsc1-c1ccc([C@H](CCCCCN2CCC(c3ccc4c(c3)C(C)(C)c3nc(=O)c5c(Br)cccc5n3-4)CC2)NC(=O)[C@@H]2C[C@@H](O)CN2C(=O)[C@@H](NC(=O)C2(F)CC2)C(C)(C)C)cc1 [Compound B2]
> 90%

Fill in reported Dmax for this entry: Cc1ncsc1-c1ccc([C@H](CN2CCOCC2)NC(=O)[C@@H]2C[C@@H](O)CN2C(=O)[C@H](c2cc(N3CCC(c4ccc5c(c4)C(C)(C)c4nc(=O)c6c(Cl)cccc6n4-5)CC3)no2)C(C)C)cc1 [Compound B109]
50 to 69%

* * *

target: SMARCA4 (Homo sapiens, UniProt P51532); experiment: HiBiT assay for protein degradation, Hela SMARCA4-HiBiT cells (A series); assay type: cell-based; set-up: fuse HiBiT to the carboxy terminus of SMARCA2 (Promega CS302365) or SMARCA4 (Promega CS3023225); host or cells: HeLa (CRISPR/Cas9 HiBiT knock-in); details: Hela SMARCA4-HiBiT cells, 24 hours treatment; read-out: SMARC A4 Hela HiBit Dmax(%)
Listed next: entries and their corresponding Dmax.

Cc1ncsc1-c1ccc([C@H](C)NC(=O)[C@@H]2C[C@@H](O)CN2C(=O)[C@@H](n2cc(CN3CCC(c4ccc5c(c4)-n4c(nc(=O)c6c(Br)cccc64)C54CCCCC4)CC3)nn2)C(C)(C)C)cc1	70 to 90%
Cc1ncsc1-c1ccc([C@H](CCCCCN2CCC(c3ccc4c(n3)-n3c(nc(=O)c5c(Br)cccc53)C43CCCCC3)CC2)NC(=O)[C@H]2C[C@H](O)CN2C(=O)[C@@H](n2cc(C3CC3)nn2)C(C)(C)C)cc1	> 90%
CC(C)(C)[C@H](NC(=O)C1(F)CC1)C(=O)N1C[C@H](O)C[C@H]1C(=O)N[C@@H](CCCCCN1CCC(c2ccc3c(c2)C2(CCCCC2)c2nc(=O)c4c(Br)cccc4n2-3)CC1)c1ccc(Cl)cc1	< 50%

Consider the additional compound presented here.
Please list Dmax recorded for the compound "Cc1ncsc1-c1ccc([C@H](Cn2cc([C@H]3CC[C@H](CN4CCC(c5ccc6c(n5)-n5c(nc(=O)c7c(Br)cccc75)C65CCCCC5)CC4)CC3)nn2)NC(=O)[C@@H]2C[C@@H](O)CN2C(=O)[C@@H](NC(=O)C2(F)CC2)C(C)(C)C)cc1"
< 50%

* * *

target: SMARCA2 (Homo sapiens, UniProt P51531); assay: HiBiT assay for protein degradation, Hela SMARCA2-HiBiT cells (A series); type: cell-based; set-up: Hela cells were genetically modified via CRISPR/Cas9 to fuse HiBiT to the carboxy terminus of SMARCA2; host or cells: HeLa (CRISPR/Cas9 HiBiT knock-in); conditions: Hela SMARCA2-HiBiT cells, 24 hours treatment; read-out: SMARC A2 Hela HiBit DC50
Sequence (P51531 whole entry): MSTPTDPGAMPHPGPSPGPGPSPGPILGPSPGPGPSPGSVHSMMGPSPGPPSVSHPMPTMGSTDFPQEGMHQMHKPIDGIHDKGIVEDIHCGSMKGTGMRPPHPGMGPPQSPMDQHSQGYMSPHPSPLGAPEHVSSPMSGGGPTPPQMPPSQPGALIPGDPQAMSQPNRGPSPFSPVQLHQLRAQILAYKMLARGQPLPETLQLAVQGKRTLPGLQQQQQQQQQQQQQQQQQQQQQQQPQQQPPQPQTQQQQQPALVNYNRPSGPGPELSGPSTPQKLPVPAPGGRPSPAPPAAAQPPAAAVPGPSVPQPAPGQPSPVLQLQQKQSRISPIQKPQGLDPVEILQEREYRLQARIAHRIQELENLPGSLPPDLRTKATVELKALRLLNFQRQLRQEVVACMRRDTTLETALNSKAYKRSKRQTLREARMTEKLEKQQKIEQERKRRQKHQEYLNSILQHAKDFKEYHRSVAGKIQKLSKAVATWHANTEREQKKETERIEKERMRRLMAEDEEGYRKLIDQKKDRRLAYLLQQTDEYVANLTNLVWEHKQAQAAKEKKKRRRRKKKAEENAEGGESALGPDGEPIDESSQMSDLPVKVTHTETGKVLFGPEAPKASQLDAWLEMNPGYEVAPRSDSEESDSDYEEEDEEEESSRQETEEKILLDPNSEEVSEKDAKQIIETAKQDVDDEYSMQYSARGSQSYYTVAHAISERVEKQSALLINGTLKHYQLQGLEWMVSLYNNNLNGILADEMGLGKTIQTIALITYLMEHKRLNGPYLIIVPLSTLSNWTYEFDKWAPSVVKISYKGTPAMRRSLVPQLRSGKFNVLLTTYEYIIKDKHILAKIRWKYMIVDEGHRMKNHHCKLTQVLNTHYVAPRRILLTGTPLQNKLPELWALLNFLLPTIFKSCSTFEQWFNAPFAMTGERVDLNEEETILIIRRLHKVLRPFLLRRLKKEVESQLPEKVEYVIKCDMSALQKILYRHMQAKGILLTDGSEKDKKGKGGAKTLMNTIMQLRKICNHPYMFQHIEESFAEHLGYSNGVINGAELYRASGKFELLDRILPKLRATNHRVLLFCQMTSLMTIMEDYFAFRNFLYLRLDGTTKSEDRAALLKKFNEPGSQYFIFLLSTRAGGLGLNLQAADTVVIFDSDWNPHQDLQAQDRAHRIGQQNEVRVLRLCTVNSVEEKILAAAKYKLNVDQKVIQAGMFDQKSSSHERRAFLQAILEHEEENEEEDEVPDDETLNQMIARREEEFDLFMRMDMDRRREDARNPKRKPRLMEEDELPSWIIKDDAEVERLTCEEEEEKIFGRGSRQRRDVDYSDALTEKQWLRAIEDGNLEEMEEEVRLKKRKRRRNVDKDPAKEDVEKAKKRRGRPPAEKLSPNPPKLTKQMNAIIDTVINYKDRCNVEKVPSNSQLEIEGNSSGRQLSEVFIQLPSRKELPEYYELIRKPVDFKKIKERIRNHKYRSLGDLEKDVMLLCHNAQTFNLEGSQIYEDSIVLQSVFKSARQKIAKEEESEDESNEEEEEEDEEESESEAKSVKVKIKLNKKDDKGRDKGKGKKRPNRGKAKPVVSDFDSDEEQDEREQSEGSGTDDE
Items are presented alongside their recorded DC50.

Cc1ncsc1-c1ccc([C@H](CCCCCN2CCC(c3ccc4c(c3)C3(CCCCC3)c3nc(=O)c5c(Br)cccc5n3-4)CC2)NC(=O)[C@H]2C[C@H](O)CN2C(=O)[C@@H](n2cc(C3CC3)nn2)C(C)(C)C)cc1 [Compound A35]	< 0.1 µM
Cc1ncsc1-c1ccc([C@H](Cn2cc(CN3CCC(c4ccc5c(c4)C4(CCCCC4)c4nc(=O)c6c(Br)cccc6n4-5)CC3)nn2)NC(=O)[C@@H]2C[C@@H](O)CN2C(=O)[C@@H](n2cc(C3CC3)nn2)C(C)(C)C)cc1 [Compound A115]	0.01 to 0.1 µM
Cc1ncsc1-c1ccc(CNC(=O)[C@@H]2C[C@@H](O)CN2C(=O)[C@@H](n2cc([C@H]3CC[C@H](CN4CCC(c5ccc6c(c5)-n5c(nc(=O)c7c(Br)cccc75)C65CCCCC5)CC4)CC3)nn2)C(C)(C)C)cc1 [Compound A67]	< 0.1 µM

Now for a further molecule.
Could you please provide reported DC50 for Cc1ncsc1-c1ccc([C@H](CN2CCOCC2)NC(=O)[C@@H]2C[C@@H](O)CN2C(=O)[C@H](C2CCCCC2)n2cc([C@H]3CC[C@H](CN4CCC(c5ccc6c(c5)-n5c(nc(=O)c7c(Br)cccc75)C65CCCCC5)CC4)CC3)nn2)cc1 [Compound A123] ? Thanks!
< 0.01 µM

src = patent US20260092071A1
